Catalogue of molecules with associated composite z-score
ASSAY: binders of probe aFGF10 on microarray, primary screen, stem cell growth factor project, biochemical, small-molecule microarray, fluorescence 635/667 (AID 1071);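 note: score merges 667 nm spot intensity and signal to noise from triplicate slides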
DETAILS: higher = more signal
Reply briefly: the number, and no unit.

Consider the following illustrative entries.
{"MOLECULE": "CS(=O)(=O)CCOC(=O)C1=CC(CCCO)=CC(C2CC2)N(Cc2cccc(OC(F)(F)F)c2)C=C1C(=O)OCCS(C)(=O)=O (configuration not stated)", "MEASURED PROPERTY": "composite z-score", "QUANTITATIVE READOUT": 0.147}
{"MOLECULE": "COCCOC(=O)N1C(=O)[C@@]2(c3cc(C#CCC(C(=O)OC)C(=O)OC)ccc31)[C@H](C(=O)NC[C@H](O)c1ccccc1)[C@H]1C(=O)O[C@H](c3ccccc3)[C@H](c3ccccc3)N1[C@@H]2c1ccc(O)cc1", "MEASURED PROPERTY": "composite z-score", "QUANTITATIVE READOUT": 0.954}
{"MOLECULE": "C=CCN1C(=O)[C@@]2(O[C@@H](CCO)[C@H]([Si](C)(C)c3ccc(OC)cc3)[C@H]2C)c2cc(N3CCOC3=O)ccc21", "MEASURED PROPERTY": "composite z-score", "QUANTITATIVE READOUT": 0.448}
{"MOLECULE": "CCOC(=O)C[C@H]1[C@H](OC(=O)c2ccccc2-c2ccccc2)[C@@H](NC(=O)c2ccc3ccccc3n2)c2cc(OCCCO)ccc2N1C(=O)c1ccccc1", "MEASURED PROPERTY": "composite z-score", "QUANTITATIVE READOUT": 0.331}
{"MOLECULE": "COCC1C2CC[C@H]3C(OCc4ccc(OC)cc4)OC[C@]4(C)[C@H]3C2=C(CN4C(=O)OC(C)(C)C)[C@H](C)C1COC (some centres not stated)", "MEASURED PROPERTY": "composite z-score", "QUANTITATIVE READOUT": 1.09}

composite z-score for O=C(O)[C@@H]1C[C@@H]2C(=O)N3CCC[C@H]3C(=O)N2[C@@H]1c1cccc(OCCO)c1 ? 0.648

Item CC(C)(C)OC(=O)CC[C@]1(C(=O)N2CCCCC2)COC(c2ccc(OCCCO)cc2)=N1 has what recorded composite z-score? 1.2

###

MEASURED ON: Fibroblast growth factor 2 (Homo sapiens)
ASSAY: FGF2 binders on small-molecule microarrays, primary screen, biochemical, small-molecule microarray, 635/667 nm fluorescence (AID 1133)
DETAILS: small-molecule microarray binding, FGF2, fluorescence 635/667; higher = more signal
MEASURED PROPERTY: composite z-score
When you answer, write just the number.

Fill in the blank: the reported composite z-score of C#C[C@@H](CC)O[Si](C#CCCCC#N)(C(C)C)C(C)C is ____. 0.895

Any idea what its composite z-score is? The compound is COCCCNC(=O)[C@@]1(Sc2ccc(C)cc2)CC(=O)N(Cc2ccccc2Cl)[C@@H]1c1ccc(CO)cc1I -0.765

Entry C=C[C@@H](C)[C@@H](OC(=O)Nc1ccc(SC)cc1)c1ccc(OCCO)cc1 : reported composite z-score = ? 0.0877

Look up composite z-score: CCOC(=O)C[C@H]1[C@H](OC(=O)c2ccc(-c3ccccc3)cc2)[C@@H](NC(=O)CC(C)C)c2cc(OCCCO)ccc2N1C(=O)c1ccccc1 0.376

Which composite z-score is listed for C=C(COC)C(=O)CC[C@@H](OC(=O)c1cccnc1)c1ccccc1OCCO ? 1
